B1: CPEB3 Ribozyme (parent)
chain: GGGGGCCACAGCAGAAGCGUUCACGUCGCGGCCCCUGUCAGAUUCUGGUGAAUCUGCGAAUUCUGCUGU

# Variants of: B1
# assay-name: self-cleavage, relative activity (ratio to wild type); higher = more cleavage; co-transcriptional

{"seq": "GGGGGCCACAGCAGAAUCGUUCACGUCGCGGCCCCCGUCAGAUUCUGGUGAAUCUGCGAAUUCUGCUGU [G17U U36C]", "self-cleavage": 0.252}
{"seq": "GGGGGCCACAGCAGAAGCGUUCACGUCGCGGCCCCUGUCAGAUUCUGGUGAAUCUGCGAAGUCCGCUGU [U61G U64C]", "self-cleavage": 0.64}
{"seq": "GGGGGCCCCAGCAGAAGCUUUCACGUCGCGGCCCCUGUCAGAUUCUGGUGAAUCUGCGAAUUCUGCUGU [A8C G19U]", "self-cleavage": 0.462}
{"seq": "GGGGGCCACAGCAGAAGCGUUCACGUCGCGGCCCAUGUCAGAUACUGGUGAAUCUGCGAAUUCUGCUGU [C35A U44A]", "self-cleavage": 0.285}
{"seq": "GGGGGCCACAGCAGAAGCGUUCACGUCGCGGUCCCUGACAGAUUCUGGUGAAUCUGCGAAUUCUGCUGU [C32U U38A]", "self-cleavage": 0.947}
{"seq": "GGGAUCCACAGCAGAAGCGUUCACGUCGCGGCCCCUGUCAGAUUCUGGUGAAUCUGCGAAUUCUGCUGU [G4A G5U]", "self-cleavage": 0.0889}
{"seq": "GGGGGCCAAAGCAGAAGCGUUCCCGUCGCGGCCCCUGUCAGAUUCUGGUGAAUCUGCGAAUUCUGCUGU [C9A A23C]", "self-cleavage": 1.01}
{"seq": "GAGGGCCACAGCAGAAGCGUUCUCGUCGCGGCCCCUGUCAGAUUCUGGUGAAUCUGCGAAUUCUGCUGU [G2A A23U]", "self-cleavage": 0.284}
{"seq": "GGAGGCCACAGCAGAAGCGUUCACGUCGCGGCCCCUGUCUGAUUCUGGUGAAUCUGCGAAUUCUGCUGU [G3A A40U]", "self-cleavage": 0.379}
{"seq": "GGGGGCCACAGCAGAAGCGUUCACGUCGCGGCCCCUGUCAGACUCUGGUCAAUCUGCGAAUUCUGCUGU [U43C G50C]", "self-cleavage": 0.915}
{"seq": "GGGGGCCACAGCAGAAGCGUUCACGUCGCGGACCCUGUCAGAUUCUGGUGAAUCUCCGAAUUCUGCUGU [C32A G56C]", "self-cleavage": 0.478}
{"seq": "GGGGGCCGCAGCAGACGCGUUCACGUCGCGGCCCCUGUCAGAUUCUGGUGAAUCUGCGAAUUCUGCUGU [A8G A16C]", "self-cleavage": 0.0896}
{"seq": "GGGGGCCACCGCAGAAGCGUUCACGUCGCGGCCCCUGUCGGAUUCUGGUGAAUCUGCGAAUUCUGCUGU [A10C A40G]", "self-cleavage": 0.976}
{"seq": "GGGGGCCACAGCAGAAGCGUUGACGUCGCGGCCCCUGUCAGAUUCGGGUGAAUCUGCGAAUUCUGCUGU [C22G U46G]", "self-cleavage": 0.178}
{"seq": "GGGGGCCACAGCUGAAGCGUUCACGUCGCGGCCCCUGUCAGAUUCUGGGGAAUCUGCGAAUUCUGCUGU [A13U U49G]", "self-cleavage": 0.901}
{"seq": "GGGGGCCACAGCAGAAGCGUUCACGUCGCGGCCCUUGUCAGAUUCUGGUGAAUCUGCGAAUUCUCCUGU [C35U G65C]", "self-cleavage": 0.568}
{"seq": "GGGGGCCACAGCAGAAGCGUUCACGUCGCCGCCCCUGUCAGAUUCUGGUGAAUCUGCGAAUUCUGCCGU [G30C U67C]", "self-cleavage": 0.883}
{"seq": "GGGGGCCACAGCAGAAGCGUUCACGUCGCGGCCCCUGUCAGAUUCUUGAGAAUCUGCGAAUUCUGCUGU [G47U U49A]", "self-cleavage": 1.01}
{"seq": "GGGGGCCACAGCAGAAGCGUUCAGGUCGCGGCCCCUGUCAGAUUCUGGGGAAUCUGCGAAUUCUGCUGU [C24G U49G]", "self-cleavage": 0.565}
{"seq": "GGGGGCCACAGCGGAAGCGUUCACGUCGCGGCCCCUGUCAGCUUCUGGUGAAUCUGCGAAUUCUGCUGU [A13G A42C]", "self-cleavage": 0.647}
{"seq": "GGGGGCCACAGCAGAAGCGUUCACGUCGCGGCCCCUGUCAGAUUCUGGUGAUUCUUCGAAUUCUGCUGU [A52U G56U]", "self-cleavage": 0.848}
{"seq": "GGGGGCCACAGCAGAAGCGUUCACGUCGCGGCCCCAGUCAGAUUCUGGUGAAUCUGCGAAAUCUGCUGU [U36A U61A]", "self-cleavage": 0.137}
{"seq": "GUGGGCCACAGCAGAAGCGUUCACGUCUCGGCCCCUGUCAGAUUCUGGUGAAUCUGCGAAUUCUGCUGU [G2U G28U]", "self-cleavage": 0.0242}
{"seq": "GGGGGCCACAGCAGAAGCGUUCACGUCGCGGCCCCUGUCAGAUUCUGGUGAAUCUGCUAAUUCUGCUGA [G58U U69A]", "self-cleavage": 1.02}
{"seq": "GGGGGCCACAGCAGAAGCUUUCGCGUCGCGGCCCCUGUCAGAUUCUGGUGAAUCUGCGAAUUCUGCUGU [G19U A23G]", "self-cleavage": 0.262}
{"seq": "GGGGGCCACAGCAGAAGCGUUCACGUCGCAGCCCCUGUCAGAUUAUGGUGAAUCUGCGAAUUCUGCUGU [G30A C45A]", "self-cleavage": 0.807}
{"seq": "GGGGGCCACAGCAGAAGCGUUCACGUCGCGGCCCCUGUCAGCUUCUGGUGAAUCUGCGAAUUCUCCUGU [A42C G65C]", "self-cleavage": 0.474}
